Tested on: SOX17 (endoderm marker) in RUES2-GLR cells
Assay: DevTox GLR-Endo assay: decrease in percent SOX17-positive cells (AEID 3094, Sox17_dn)
Details: tcpl plot AEID3094, COFF 20.3
Assign HIT−CALL to each entry below.
Numbers only.

Worked cases, HIT−CALL given:
[[record]]
compound = "OB(O)O"
readout_label = "HIT−CALL"
value_reported = 0

[[record]]
compound = "NC(=O)NO [Hydroxyurea]"
readout_label = "HIT−CALL"
value_reported = 0

[[record]]
compound = "COc1ccc2c(c1)c(CC(=O)O)c(C)n2C(=O)c1ccc(Cl)cc1"
readout_label = "HIT−CALL"
value_reported = 1


Prompt: # value lookup — system SOX17 (endoderm marker) in RUES2-GLR cells, readout HIT−CALL, item O=C1CCC(N2C(=O)c3ccccc3C2=O)C(=O)N1 (stereo not shown) [Thalidomide]
Completion: 1
